Test system: Klebsiella aerogenes DSM 30053
Experiment: fold change of Cadaverine concentration vs plate DMSO controls (fold change (ratio)); higher = more amine produced, active = hit call of the paper (significant change in both replicates, either direction)
Conditions: 20 µM; incubation time: 27 h, anaerobic, 37 °C
Structures can show the parent of a compound that is named as a salt.

molecule	fold change of Cadaverine concentration
Nc1c([N+](=O)[O-])ccc(Oc2ccccc2)c1Cl	1.01
OCC(O)CCl (racemic)	1
Cc1nnc(-c2ccccc2)c(=O)n1N	0.972
NCCc1c[nH]c2ccc(O)cc12 [Serotonin hydrochloride]	1.06
CNC(=O)c1cc(C#N)cc(C)c1NC(=O)c1cc(Br)nn1-c1ncccc1Cl	1.02

---

Test system: Clostridium sporogenes DSM 1664
Experiment: growth (OD595) fold change vs plate DMSO controls (fold change (ratio)); higher = more growth
Settings: 20 µM; incubation time: 27 h, anaerobic, 37 °C
Counter-ions that a name gives are not always drawn.
Lab note: anything with growth at or over 1 counts as condition met; the rest go in condition not met.

compound	class_name
CNC(=O)Oc1cccc2ccccc12	condition met
CCCC(C)C1(CC)C(=O)NC(=O)NC1=O (centres undefined) [Pentobarbital]	condition met
CC[C@@]1([C@@H]2O[C@@H]([C@H]3O[C@@](O)(CO)[C@H](C)C[C@@H]3C)C[C@@H]2C)CC[C@H]([C@]2(C)CC[C@]3(C[C@H](O)[C@@H](C)[C@@H]([C@@H](C)[C@@H](OC)[C@H](C)C(=O)O)O3)O2)O1 [Monensin sodium salt]	condition not met
CN1CCN(C(=O)OC2c3nccnc3C(=O)N2c2ccc(Cl)cn2)CC1 (centres undefined) [Zopiclone]	condition met
CC[C@H](C)C1O[C@]2(C=C[C@@H]1C)C[C@@H]1C[C@@H](C/C=C(\C)[C@@H](O[C@H]3C[C@H](OC)[C@@H](O[C@H]4C[C@H](OC)[C@H](NC)[C@H](C)O4)[C@H](C)O3)[C@@H](C)/C=C/C=C3\CO[C@@H]4[C@H](O)C(C)=C[C@@H](C(=O)O1)[C@]34O)O2 (some centres undefined)	condition not met
O=C(Nc1ccc(F)cc1F)c1cccnc1Oc1cccc(C(F)(F)F)c1	condition not met
CCCC(Cn1cncn1)c1ccc(Cl)cc1Cl (centres undefined)	condition not met
C[C@]12CCC(=O)C(O)=C1CC[C@@H]1[C@@H]2CC[C@]2(C)C(=O)CC[C@@H]12 [Formestane]	condition met

---

Listed compounds paired with reported growth
Test system: Klebsiella aerogenes DSM 30053
Test: growth (OD595) fold change vs plate DMSO controls (fold change (ratio)); higher = more growth
Settings: 20 µM; incubation time: 27 h, anaerobic, 37 °C
Counter-ions that a name gives are not always drawn.
observed_property: growth

compound	tested_system	assay_result
CC1=NNC(=O)N(/N=C/c2cccnc2)C1	Klebsiella aerogenes DSM 30053	0.97
N[C@@H]1C[C@H]1c1ccccc1 [Tranylcypromine hydrochloride]	Klebsiella aerogenes DSM 30053	1.03
COc1ccc(C(=O)N2CCCC2=O)cc1	Klebsiella aerogenes DSM 30053	1.04
C1=Cc2cccc3cccc1c23	Klebsiella aerogenes DSM 30053	0.96
CC(COc1ccc(Oc2ccccc2)cc1)Oc1ccccn1 (centres undefined)	Klebsiella aerogenes DSM 30053	1.01
CN(C)C(=O)Oc1ccc[n+](C)c1 [Pyridostigmine iodide]	Klebsiella aerogenes DSM 30053	1
CS(=O)(=O)NC(=O)c1cc(Oc2ccc(C(F)(F)F)cc2Cl)ccc1[N+](=O)[O-]	Klebsiella aerogenes DSM 30053	1.08
CCc1cnc(C2=NC(C)(C(C)C)C(=O)N2)c(C(=O)O)c1 (centres undefined)	Klebsiella aerogenes DSM 30053	0.985
O=C(Nc1ccc(F)cc1F)c1cccnc1Oc1cccc(C(F)(F)F)c1	Klebsiella aerogenes DSM 30053	1.03
C[C@]12CCC(=O)C=C1C=C[C@@H]1[C@@H]2CC[C@@]2(C)[C@H]1CC[C@@]2(O)CCC(=O)O [Canrenoic acid potassium salt]	Klebsiella aerogenes DSM 30053	1.02
CN1CCC2(C)c3cc(O)ccc3N(C)C12 (single isomer, unassigned; (-)) [(-) Eseroline fumarate salt]	Klebsiella aerogenes DSM 30053	1.03
CCc1cc(C)cc(CC)c1-c1c(OC(=O)C(C)(C)C)n2n(c1=O)CCOCC2	Klebsiella aerogenes DSM 30053	0.985
CCOP(=S)(OCC)Oc1cc(C)nc(C(C)C)n1	Klebsiella aerogenes DSM 30053	0.998
COC(=O)N(OC)c1ccccc1COc1ccn(-c2ccc(Cl)cc2)n1	Klebsiella aerogenes DSM 30053	1.07
